# Tested on: HOP-92 NSCLC
# assayName: NCI tumour cell line growth inhibition, 48 h
endpointName: GI50

compound	assayedTarget	GI50
CN1CCN(Cc2ccc(NC(=O)c3[nH]ncc3Nc3ncnc4[nH]ccc34)cc2)CC1	HOP-92 NSCLC	431 nM
CC(C)(C)c1ccc(C2CC(=O)C3=C(C2)Nc2ccccc2N(C(=O)c2ccccc2Cl)C3c2ccc(F)cc2)cc1 (stereo not given)	HOP-92 NSCLC	> 100000 nM
Cc1nn(C)c2ncnc(N/N=C/c3cccc(O)c3O)c12	HOP-92 NSCLC	747 nM
CCN1CCN(c2cc(C(=O)Nc3cccc(Nc4ccc5c(OC)cccc5n4)c3)cc(C(F)(F)F)c2)CC1	HOP-92 NSCLC	1260 nM

// below: GI50 requested for another compound
What does the record list as GI50 for COc1cc(S(=O)(=O)Nc2nc(-c3ccc(N4C(=O)C(C)SC4c4ccccc4O)cc3)cs2)ccc1Cl (stereo not given) ?
28000 nM

====

# Test system: SR leukemia
# assayName: NCI tumour cell line growth inhibition, 48 h
Where a SMILES comes first, the peptide text is derived from it. The star is where a group is joined. Boc = CC(C)(C)OC(=O)*
TGI listing for selected molecules.

Endpoint output: TGI of O=[N+]([O-])c1ccc(N2N=C(c3c(O)ccc4ccccc34)CC2c2ccc(Cl)cc2)c([N+](=O)[O-])c1 (stereo not given) . Value?
31.4 µM

Quick check: TGI of CCC(C)(O)c1cn(-c2ccc(Cl)cc2)nn1 (stereo not given) ?
> 100 µM

Which TGI reading was recorded for the molecule FC(F)c1ncc(-c2ccc(C(F)(F)F)cc2)c(NC2CCCCCC2)n1 ?
> 10 µM

If you can, please state the reported TGI value of COc1ccc(/C=c2\[nH]c3nc(=O)c(N4CCCCC4)c(N)n3c2=O)cc1 .
> 100 µM

Query: TGI; subject: COC(=O)C(Cc1c[nH]c2ccccc12)NC(=O)C(Cc1c[nH]c2ccccc12)NC(=O)C(Cc1c[nH]c2ccccc12)NC(=O)C(Cc1c[nH]c2ccccc12)NC(=O)C(Cc1c[nH]c2ccccc12)NC(=O)C(Cc1c[nH]c2ccccc12)NC(=O)C(Cc1c[nH]c2ccccc12)NC(=O)OC(C)(C)C (stereo not given) (Boc-WWWWWWW-OMe; configuration not given here)
> 100 µM

Suppose we examine the molecule O=C1C(Cl)=C(Cl)C(=O)N1c1ccc(Cl)c(Cl)c1Cl ; what TGI value has been reported?
68 µM

Dear colleague, I am looking for the recorded TGI of the following molecule: CCCC1=C(OC)C(=O)c2c(C)cc(Cl)nc2C1=O
5.11 µM

Could you tell me which TGI is on file for O=C1C=CC(=O)c2c(O)c(N3CCOCC3)c(Cl)c(O)c21 ?
> 7.34 µM

Value lookup for TGI; key = O=c1cc(N2CCOCC2)n2c(ccc3ccccc32)n1
> 100 µM

# get_value(readout='TGI', item= O=C(O)CSC1=NNC2(C(=O)N1)c1ccccc1-c1ccccc12 )
> 10 µM

====

Entries and their TGI
# Test system: SK-MEL-28 melanoma
# assayName: NCI tumour cell line growth inhibition, 48 h
API: value field is a number in µM; no unit string.

Observe how each entry below is paired with its result.
smilesStructure	assayedTarget	TGI / µM
Oc1cccc2c(Br)ccnc12	SK-MEL-28 melanoma	38.3
CN1CCN(CCCOc2ccc3nc(Nc4ccc(F)c(F)c4)ccc3c2)CC1	SK-MEL-28 melanoma	3.2
COc1cc(C)cc(C(=O)/C=C/c2ccccc2)c1O	SK-MEL-28 melanoma	50.7
CC(=O)c1c[nH]c2ccc(-c3ccnc(Nc4ccc(NC(=O)C5CCCC5)c(CN5CCOCC5)c4)n3)cc12	SK-MEL-28 melanoma	0.27
CC(C)C[C@H](NC(=O)Cn1cccc(CNC(=O)c2ccccc2)c1=O)B(O)O	SK-MEL-28 melanoma	13

Which TGI reading was recorded for the molecule O=C1c2ccncc2C(=O)c2c(O)ccc(O)c21 ?
26.7

====

# System: MDA-MB-435
# assayName: NCI tumour cell line growth inhibition, 48 h
Below is a list of entries, each paired with its recorded TGI value.
Reply with just the number (in µM).

The examples below pair each entry with its known result.
molecule	unitLabel	testResult
Cc1ccc2oc(=O)c3c(O)c4cccc(OC5OC(C)C6O[C@@H](c7ccccc7)OC6C5OC5OC(C)C(O)C(O)C5O)c4c4oc(=O)c1c2c34 (stereo partly drawn)	µM	1.9
C=C(C(=O)OC)[C@@H]1CC2OC1C(=O)C(C)CCC/C(C)=C/CC[C@@]2(C)O (stereo partly drawn)	µM	79.4
CC(=O)c1c[nH]c2ccc(-c3ccnc(Nc4ccc(NC(=O)C5CCCC5)c(CN5CCOCC5)c4)n3)cc12	µM	0.121
CC/C=C/c1cc2c(cc1O)CCC1C2CC[C@@]2(C)C1CC[C@@H]2O (stereo partly drawn)	µM	1.12

Query molecule follows.
Query for MDA-MB-435: what TGI does the record show for S=C1C(=Nc2ccccc2)N(c2ccccc2)/C(=N\c2cccc[n+]2Cc2ccccc2)N1c1ccccc1 ?
22.3

====

# Tested on: OVCAR-8 ovarian
# assayName: NCI tumour cell line growth inhibition, 48 h
Items are presented alongside their recorded TGI.

May I ask what TGI has been recorded for CCOC(=O)c1c(N2CCCC2)[nH]c(=O)c(C(c2ccc(N(C)C)cc2)c2c(O)c(C(=O)OCC)c(N3CCCC3)[nH]c2=O)c1O ?
> 100 µM

So what does the record say about TGI for Oc1c(Cl)cc2cc1-c1cc(cc(Cl)c1O)CCc1c(cc(Cl)c(O)c1Cl)-c1cc(Cl)c(c(Cl)c1O)/C=C\2 ?
16.1 µM

Give the measured TGI of CCOC(=O)CCc1cn2cc(Br)nc(OC)c2n1 .
> 100 µM

I'd like to know its TGI. The molecule in question is Cc1cc(C)nc(NS(=O)(=O)c2ccc(NNc3c4ccccc4nc4c(C(=O)Nc5ccc(S(=O)(=O)Nc6cc(C)on6)cc5)cccc34)cc2)n1
> 100 µM

====

# Test system: U251 CNS
Write down the outcome that applies. Available outcomes: Y = active, N = inactive

Solved entries (count: 4):
compound	assayedTarget	classAssignment
CC(C)(C)c1ccc(C2CC(=O)C3=C(C2)Nc2ccccc2N(C(=O)c2ccccc2Cl)C3c2ccc(F)cc2)cc1 (centres undefined)	U251 CNS	N
CC12CCC(=O)C(O1)C1C(=O)c3ccc4c(ccc5ccccc54)c3C(=O)C12 (centres undefined)	U251 CNS	N
COc1cc(F)c(F)cc1C(=O)c1cnc(NC2CCN(S(C)(=O)=O)CC2)nc1N	U251 CNS	N
Nc1c(C(=O)c2cccc(C(O)CO)c2)cnn1-c1ccc(F)cc1 (centres undefined)	U251 CNS	N

Answer briefly: the call reported for CC(=O)c1c[nH]c2ccc(-c3ccnc(Nc4ccc(NC(=O)C5CCCC5)c(CN5CCOCC5)c4)n3)cc12 in this assay.
Y

Just curious, what result did O=C1NC(=O)C(=Cc2cn(Cc3ccccc3)c3ccccc23)C(=O)N1 get here?
N

====

# Test system: SF-268 CNS
# assayName: NCI tumour cell line growth inhibition, 48 h
endpointName: TGI

molecule	TGI
Cc1ccc(S(=O)(=O)n2cc([C@@]3(O)C[C@H](CSC#N)OC3=O)c3ccccc32)cc1	19.7 µM
COc1cc2c3c(n(C)c(=O)c2cc1OC)-c1cc2c(cc1/C3=C\CCCCCBr)OCO2	> 100 µM
O=C1C(N2CCN(CCOCCO)CC2)=C(Cl)C(=O)c2ncccc21	44.5 µM
CC(C)=Cc1cc(CCC/C(C)=C/Cc2c(O)cc(C)c(C(=O)O)c2O)co1	> 100 µM
c1cc2cc3c4c5c(cc6ccc7cc8cc9c%10c8c8c7c6c5c8c5c%10c(c1C9N1CCOCCOCCOCCOCCOCC1)c2c45)C3 (centres undefined)	> 100 µM
NC1=NC(SCc2ccccc2CCl)c2ncn(Cc3ccccc3CCl)c2N1 (centres undefined)	10.2 µM
CN(C)CCN1C(=O)c2cccc3c(/C=C/CN4C(=O)c5cccc6cccc(c56)C4=O)ccc(c23)C1=O	> 100 µM
O=C(Nc1ccc(-n2cc(-c3ccncc3)c(-c3ccc(O)c(Cl)c3)n2)cc1)c1ccc(Cl)c(C(F)(F)F)c1	> 50 µM

Endpoint output: TGI of COC1=C(OC)C(=O)C(C/C=C(\C)CC/C=C(\C)CC/C=C(\C)CC/C=C(\C)CC/C=C(\C)CC/C=C(\C)CC/C=C(\C)CC/C=C(\C)CC/C=C(\C)CCC=C(C)C)=C(C)C1=O . Value?
> 100 µM

Recorded TGI of Oc1c(Cl)cc2cc1-c1cc(cc(Cl)c1O)CCc1c(cc(Cl)c(O)c1Cl)-c1cc(Cl)c(c(Cl)c1O)/C=C\2 , please.
23.6 µM

Looking for the measured TGI of COC(=O)[C@@H](NS(=O)(=O)CC12CCC(CC1)C2(C)C)C(C)(C)C , can you help?
> 100 µM

Query: TGI; subject: CCCC1=C(OC)C(=O)c2c(C)cc(Cl)nc2C1=O
27.2 µM
